# maps each entry to its Population Pyknosed Nuclei (%)
Test system: Fibroblast
assay_comment: Multiplex assay against human fibroblast
Assay type: toxicity, cell-based
condition: 48 h, 1 µM, compound concentration 1 uM, replicate 1
experimental_endpoint: Population Pyknosed Nuclei (%)

compound="CN(C)C(=O)N[C@H]1CC[C@H](CCN2CCN(c3cccc(Cl)c3Cl)CC2)CC1.Cl [CARIPRAZINE HYDROCHLORIDE]" tested_system=Fibroblast recorded_result=18
compound=C=CC(=O)Nc1cccc(C(=O)Nc2ccc(Nc3cc(-c4[nH]c(SC)nc4C)ccn3)cc2)c1 tested_system=Fibroblast recorded_result=23
compound=COc1ncc(-c2ccc3nccc(-c4ccnnc4)c3c2)cc1NS(=O)(=O)c1ccc(F)cc1F tested_system=Fibroblast recorded_result=10
compound=CC[C@H](C)C(=O)O[C@H]1C[C@@H](C)C=C2C=C[C@H](C)[C@H](CC[C@@H]3C[C@@H](O)CC(=O)O3)[C@H]21 tested_system=Fibroblast recorded_result=5
compound=COc1cc(-n2cnc3cc(-c4ccc(Cl)cc4)sc3c2=O)ccc1OCCN1CCCC1 tested_system=Fibroblast recorded_result=11
compound="Cl.N#Cc1ccc2[nH]cc(CCCCN3CCN(c4ccc5oc(C(N)=O)cc5c4)CC3)c2c1 [VILAZODONE HYDROCHLORIDE]" tested_system=Fibroblast recorded_result=10
compound=CN1CCN(c2ccc(OC(F)(F)F)c(Nc3ncc4c(n3)-c3c(c(C(N)=O)nn3CCO)CC4)c2)CC1 tested_system=Fibroblast recorded_result=24
compound=CNc1nc(NCc2ccc(NS(C)(=O)=O)cc2Cl)cc(-c2ccccn2)n1 tested_system=Fibroblast recorded_result=7
compound=CN(C)C(=O)/C(C#N)=C/c1ccc(-c2nc3cnc4[nH]ccc4c3n2C2CCCCC2)o1 tested_system=Fibroblast recorded_result=29
compound=Cc1nc(-c2ccc(-c3ccc(C(=O)N4CCc5cc6c(cc54)C4(CCN(C)CC4)CO6)cc3)c(C)c2)no1 tested_system=Fibroblast recorded_result=8
compound="CC(C)NCC(O)COc1ccc(CCOCC2CC2)cc1.Cl (stereo unspecified) [BETAXOLOL HYDROCHLORIDE]" tested_system=Fibroblast recorded_result=15
compound=Cn1cc(-c2[nH]c3cc(NC(=O)[C@H](N)C4CCCCC4)cc4c3c2C=NNC4=O)cn1 tested_system=Fibroblast recorded_result=20
compound=Cc1csc2c(N[C@@H](C)CN3CCN(S(=O)(=O)c4ccc(Cl)c(Cl)c4)CC3)ncnc12 tested_system=Fibroblast recorded_result=24
compound="CN1CCC[C@@H]1CCO[C@](C)(c1ccccc1)c1ccc(Cl)cc1.O=C(O)/C=C/C(=O)O [CLEMASTINE FUMARATE]" tested_system=Fibroblast recorded_result=8
compound=c1cn2cc(-c3ccc4cn[nH]c4c3)nc(Nc3ccc(N4CCOCC4)cc3)c2n1 tested_system=Fibroblast recorded_result=4
compound="CN1CCCC(n2nc(Cc3ccc(Cl)cc3)c3ccccc3c2=O)CC1.Cl (stereo unspecified) [AZELASTINE HYDROCHLORIDE]" tested_system=Fibroblast recorded_result=20
compound="COc1cccc([C@@H](C)NCCCc2ccccc2Cl)c1.Cl [TECALCET HYDROCHLORIDE]" tested_system=Fibroblast recorded_result=10
compound=Cc1cc(C)cc(-c2cnc3cc(Cl)c(-c4cccc(O)c4)cc3c2OCCCN)c1 tested_system=Fibroblast recorded_result=29
compound=Cc1c(-c2ccc(O)cc2)n(Cc2ccc(OCCN3CCCCCC3)cc2)c2ccc(O)cc12 tested_system=Fibroblast recorded_result=6
compound=C=CC(=O)Nc1ccc2ncnc(Nc3ccc(OCc4cccc(F)c4)c(Cl)c3)c2c1.Cc1ccc(S(=O)(=O)O)cc1 tested_system=Fibroblast recorded_result=16
compound=CN1CCN(CCOc2cc(OC3CCOCC3)c3c(Nc4c(Cl)ccc5c4OCO5)ncnc3c2)CC1 tested_system=Fibroblast recorded_result=6
compound="C[C@@H](NCCCc1cccc(C(F)(F)F)c1)c1cccc2ccccc12.Cl [CINACALCET HYDROCHLORIDE]" tested_system=Fibroblast recorded_result=14
compound=CN(C)CC#Cc1ccc(OCCCc2sc(N3CCc4cccc(C(=O)Nc5nc6ccccc6s5)c4C3)nc2C(=O)O)c(F)c1 tested_system=Fibroblast recorded_result=33
compound="O=C1NCN(c2ccccc2)C12CCN(CCCOc1ccc(F)cc1)CC2 [SPIRAMIDE]" tested_system=Fibroblast recorded_result=17
compound=OC1(c2ccc(Cl)cc2)CCN(Cc2c[nH]c3ccccc23)CC1 tested_system=Fibroblast recorded_result=40
compound=Cc1[nH]c(/C=C2\C(=O)Nc3ccc(S(=O)(=O)N(C)c4cccc(Cl)c4)cc32)c(C)c1C(=O)N1CCN(C)CC1 tested_system=Fibroblast recorded_result=21

Data provenance is ChEMBL document CHEMBL4689842.
